Numbers sourced from patent US10844038B2.

Biological target: MEK4 (Homo sapiens (Human), UniProt P45985)
Sequence (P45985 whole entry): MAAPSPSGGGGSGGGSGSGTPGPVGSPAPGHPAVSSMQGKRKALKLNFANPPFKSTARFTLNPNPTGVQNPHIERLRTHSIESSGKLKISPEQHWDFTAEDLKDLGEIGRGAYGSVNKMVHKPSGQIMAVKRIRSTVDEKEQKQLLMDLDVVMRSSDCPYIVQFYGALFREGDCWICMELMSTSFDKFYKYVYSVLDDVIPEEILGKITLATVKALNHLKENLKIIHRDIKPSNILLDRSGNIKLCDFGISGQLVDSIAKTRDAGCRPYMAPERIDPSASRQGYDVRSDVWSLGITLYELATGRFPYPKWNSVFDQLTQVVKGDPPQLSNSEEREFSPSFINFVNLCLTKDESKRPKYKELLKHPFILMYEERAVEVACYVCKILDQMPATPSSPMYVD
Assay: KINOMEscan competition binding assay (Kd)
Settings: read-out: Kd Values Against MEK Kinases Isoforms: MEK4
pKd: −log10 of the molar value.
outcome-measure: pKd

Query for MEK4 (Homo sapiens (Human), UniProt P45985): what pKd does the record show for Nc1ncnc2c1c(-c1ccc(Oc3ccccc3)cc1)nn2C[C@H]1SSC[C@H]1O ? 5.00 to 6.00

====

Biological target: Bruton Tyrosine Kinase (BTK) (Homo sapiens (Human))
Sequence (Q06187 whole entry): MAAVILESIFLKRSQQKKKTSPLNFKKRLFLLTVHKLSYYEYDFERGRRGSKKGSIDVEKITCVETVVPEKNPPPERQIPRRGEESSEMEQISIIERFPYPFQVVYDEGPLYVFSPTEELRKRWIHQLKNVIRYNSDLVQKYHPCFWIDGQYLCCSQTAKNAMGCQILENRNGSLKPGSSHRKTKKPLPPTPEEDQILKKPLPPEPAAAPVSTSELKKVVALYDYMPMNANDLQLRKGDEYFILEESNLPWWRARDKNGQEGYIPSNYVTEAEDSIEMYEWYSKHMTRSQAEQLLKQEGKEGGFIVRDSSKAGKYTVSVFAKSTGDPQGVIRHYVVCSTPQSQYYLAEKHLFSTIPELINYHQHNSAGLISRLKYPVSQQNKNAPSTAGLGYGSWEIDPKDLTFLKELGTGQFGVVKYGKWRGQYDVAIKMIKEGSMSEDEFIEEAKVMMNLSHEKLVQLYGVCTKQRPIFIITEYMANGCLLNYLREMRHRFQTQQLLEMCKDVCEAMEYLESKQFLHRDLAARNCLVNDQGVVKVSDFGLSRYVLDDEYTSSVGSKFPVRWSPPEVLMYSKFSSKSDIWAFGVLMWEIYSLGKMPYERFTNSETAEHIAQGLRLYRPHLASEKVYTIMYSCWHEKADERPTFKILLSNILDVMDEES
Experiment: Rabbit reticulocyte lysate assay (KinaseSeeker competition binding)
Conditions: read-out: IC50 Activity Levels Against Bruton Tyrosine Kinase: BTK
pIC50: −log10 of the molar value.
Measured pIC50, listed per entry.

Look over these answered cases.
compound	pIC50
Nc1ncnc2c1c(-c1ccc(Oc3ccccc3)cc1)nn2C[C@H]1SSC[C@H]1O	5.00 to 6.00
Nc1ncnc2c1c(-c1ccc(Oc3ccccc3)cc1)nn2C[C@H]1SSC[C@@H]1O	6.00 to 7.00
Nc1ncnc2c1c(-c1ccc(Oc3ccccc3)cc1)nn2C[C@@H]1SSC[C@@H]1O	5.00 to 6.00
Nc1ncnc2c1c(-c1ccc(Oc3ccccc3)cc1)nn2C[C@@H]1SSC[C@H]1O [43 A.]	5.00 to 6.00

Shifting focus to the compound that follows.
Can you look up the measured pIC50 of Nc1ncnc2c1c(-c1ccc(Oc3ccccc3)cc1)nn2C[C@@H]1SSC[C@H]1O (relative stereo) [Example 42] for me? 6.00 to 7.00
